tested on: Influenza A virus; test: Antiviral activity against influenza A virus NWS/H0N1 infected in BHK cells up to 100 ug/ml by agar diffusion assay; assay type: functional, organism-based
The source made the active and inactive calls. No cut-off for these calls is given here.
readout-type: Activity

compound: CN1C(=N)SC(Cc2c[nH]c3ccccc23)C1=O (racemic)
result: inactive
--
compound: O=C1N=C(NCCO)SC1Cc1c[nH]c2ccccc12 (racemic)
result: inactive
--
compound: CCNC1=NC(=O)C(Cc2c[nH]c3ccccc23)S1 (racemic)
result: inactive

====

Quick reference: MIC of the listed items.
test system: Bacillus subtilis; assay: Antibacterial activity against Bacillus subtilis; format: functional
Entry rule: numbers only, all in µg/mL.

## Input Requested read-out: MIC. Entry: CC1(C)S[C@@H]2[C@H](NC(=O)[C@H](N)c3ccccc3)C(=O)N2[C@H]1C(=O)O [AMPICILLIN]
## Output 2

## Input For the compound shown here, CNC1=NC(=O)[C@H]([C@H](C)c2c[nH]c3ccccc23)O1 (racemic) [INDOMYCIN] , give the reported MIC.
## Output 20

## Input I am curious: what MIC value has been reported for C/N=C1/S[C@@H]([C@H](C)c2c[nH]c3ccccc23)C(=O)N1C (racemic) ?
## Output 20
